- System: 633275-114-R-J1-PDC complex spheroids, viability;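 note: spheroids exposed to the agents for seven days; percent of DMSO vehicle control viability which is 100%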
- protocolText: Anticancer human tumor 633275-114-R-J1-PDC patient-derived endometrial adenocarcinoma cell line growth inhibition [GQUAD]
- condition: second compound 0.316 µM; first compound 10 µM; stronger effect = lower value
assayReadout: viability, T/C (%)
Give your result in % as a bare value.

Recorded viability, T/C of Nc1ccn(C2OC(CO)C(O)C2(F)F)c(=O)n1 (stereo not drawn) + Cc1cnc(CNC(=O)c2c(=O)c3ccc(N4CCCN(C)CC4)nc3n3c2sc2ccccc23)cn1 , please.
19.5

Recorded viability, T/C of CC(=O)O[C@H]1C(=O)[C@@]2(C)[C@H]([C@H](OC(=O)c3ccccc3)[C@]3(O)C[C@H](OC(=O)[C@H](O)[C@@H](NC(=O)c4ccccc4)c4ccccc4)C(C)=C1C3(C)C)[C@]1(OC(C)=O)CO[C@@H]1C[C@@H]2O + CN(C)c1ccc(Nc2c3ccc(NC(=O)CCN4CCCC4)cc3nc3cc(NC(=O)CCN4CCCC4)ccc23)cc1 , please.
20.4

Recorded viability, T/C of Nc1ccn(C2OC(CO)C(O)C2(F)F)c(=O)n1 (stereo not drawn) + Cc1[nH]c2ccc(F)cc2c1-c1nc2c3cccnc3c3ncccc3c2[nH]1 , please.
19.9
